- Test system: K562 CRISPRi cells
- measurement.notes: Constant region variant library pooled growth screen, K562
- Assay type: cell-based, human
- test.settings: sgRNA constant region variant; activity relative to unmodified constant region cr995; mean CRISPRi activity
Lab note: compare Mean relative activity with 0.01, writing True if less and False if equal or more.

Here's what some known entries look like.
molecule: cr415 (nucleic acid, listed as DNA, chemistry not fully specified) guide: GTTTAAGAGCTAAGCTGGAAACAGCATAGCAAGTTTAAATAAGGCTAGTCCCTTATCAACTTGAAATAGTGGCACCGAGTCGGTGCT
class: True

molecule: cr337 (nucleic acid, listed as DNA, chemistry not fully specified) guide: GTTTAAGAGCTAAGCTGGAAACAGCATAGCAAGTTTAAATAACGCTAGTCGGTTATCAACTTGAGAAAGTGGCACCGAGTCGGTGCT
class: False

molecule: cr280 (nucleic acid, listed as DNA, chemistry not fully specified) guide: GTTTAAGAGCTAAGCTGGAAACAGCATAGCAACTTTAAATAAGGCTAGTCCGTTATCAACTTGAAAAAGTGTCACCGAGTCGGTGAT
class: False

molecule: cr187 (nucleic acid, listed as DNA, chemistry not fully specified) guide: GTTTAAGAGCTAAGCTGGAAACAGCATAGCAAGGTTAAATAAGGCTAGTCCGTTATCAACTTGAAAAAGTGGCACCAAGTTGGTGCT
class: True

molecule: cr424 (nucleic acid, listed as DNA, chemistry not fully specified) guide: GTTTAAGAGCTAAGCTGGAAACAGCATAGCAAGTTTAAATAACGCTAGTCGGTTATCAACTTGAAAAAGTGGCGTCGAGTCGACGCT
class: False

molecule: cr680 (nucleic acid, listed as DNA, chemistry not fully specified) guide: GTTTAAGAGCTAAGCTGGAAACAGCATAGCAAGTTTAAATAACGCTAGTCGGTTATCAACATGAAAATGTGGCTCCGAGTCGGAGCT
class: False

Let's switch to this molecule now.
Given the entry cr665 (nucleic acid, listed as DNA, chemistry not fully specified) guide: GTTTAAGAGCTAAGCTGGAAACAGCATAGCAACTTTAAATAAGGCTAGTCCGTTATCAACTTGAAAAAGTGCCACCGAGTCGGTGGT , would its reported Mean relative activity be below 0.01?
False
